Reference for the values: ChEMBL document CHEMBL4304813

Recorded measurements of log10(half-life at 1 µM), one per entry
- experiment_notes: Microsomal stability in human liver microsomes assessed as half-life at 1 uM in presence of NADPH/phosphate buffer by LC-MS/MS analysis
- Format: ADME, Microsome
observation_type: log10(half-life at 1 µM) (log10 of the value in min)

{"structure_smiles_string": "C[C@]1(c2ccc(Cl)cc2Cl)OC[C@@H](COc2ccc(N3CCN(C(=O)N/N=C/c4ccc(O)cc4)CC3)cc2)O1", "log10(half-life at 1 µM)": 1.06}
{"structure_smiles_string": "C[C@]1(c2ccc(Cl)cc2Cl)OC[C@@H](COc2ccc(N3CCN(C(=O)Cc4cccc(O)c4)CC3)cc2)O1", "log10(half-life at 1 µM)": 1.31}
{"structure_smiles_string": "C[C@]1(c2ccc(Cl)cc2Cl)OC[C@@H](COc2ccc(N3CCN(CCCc4cccc(O)c4)CC3)cc2)O1", "log10(half-life at 1 µM)": 1.15}
{"structure_smiles_string": "C[C@]1(c2ccc(Cl)cc2Cl)OC[C@@H](COc2ccc(N3CCNCC3)cc2)O1", "log10(half-life at 1 µM)": 1.71}
{"structure_smiles_string": "C[C@]1(c2ccc(Cl)cc2Cl)OC[C@@H](COc2ccc(N3CCN(C(=O)CCc4cccc(O)c4)CC3)cc2)O1", "log10(half-life at 1 µM)": 0.51}
{"structure_smiles_string": "C[C@]1(c2ccc(Cl)cc2Cl)OC[C@@H](COc2ccc(N3CCN(C(=O)CCc4ccc(O)c(O)c4)CC3)cc2)O1", "log10(half-life at 1 µM)": 0.82}
{"structure_smiles_string": "C[C@]1(c2ccc(Cl)cc2Cl)OC[C@@H](COc2ccc(N3CCN(C(=O)c4cccc(O)c4)CC3)cc2)O1", "log10(half-life at 1 µM)": 1.20}

###

- experiment_notes: Microsomal stability in human liver microsomes assessed as intrinsic clearance at 1 uM in presence of NADPH/phosphate buffer by LC-MS/MS analysis
- Assay type: ADME, Microsome
- measurement_conditions: read-out: CLH
Values of microsomal CLint at 1 µM strictly less than 50 µL/min/mg map to 1 (yes), and values of at least 50 µL/min/mg map to 0 (no).

{"structure_smiles_string": "C[C@]1(c2ccc(Cl)cc2Cl)OC[C@@H](COc2ccc(N3CCN(C(=O)c4cccc(O)c4)CC3)cc2)O1", "discrete_label": "1 (yes)"}
{"structure_smiles_string": "C[C@]1(c2ccc(Cl)cc2Cl)OC[C@@H](COc2ccc(N3CCN(C(=O)CCc4cccc(O)c4)CC3)cc2)O1", "discrete_label": "0 (no)"}
{"structure_smiles_string": "C[C@]1(c2ccc(Cl)cc2Cl)OC[C@@H](COc2ccc(N3CCN(C(=O)CCc4ccc(O)c(O)c4)CC3)cc2)O1", "discrete_label": "0 (no)"}
{"structure_smiles_string": "C[C@]1(c2ccc(Cl)cc2Cl)OC[C@@H](COc2ccc(N3CCN(C(=O)N/N=C/c4ccc(O)cc4)CC3)cc2)O1", "discrete_label": "0 (no)"}
{"structure_smiles_string": "C[C@]1(c2ccc(Cl)cc2Cl)OC[C@@H](COc2ccc(N3CCN(C(=O)Cc4cccc(O)c4)CC3)cc2)O1", "discrete_label": "1 (yes)"}
{"structure_smiles_string": "C[C@]1(c2ccc(Cl)cc2Cl)OC[C@@H](COc2ccc(N3CCNCC3)cc2)O1", "discrete_label": "1 (yes)"}
